system: OVCAR-8 ovarian; test: NCI-60 one-dose screen, 48 h (100 = growth as untreated, 0 = no growth, -100 = all killed); conditions: 10 µM unless noted
This is part of a sample that, as a whole, favours compounds with a hit. Of some 83,000 tested, about 20% had one in any assay.
Please map values of growth to classes as shown: bin A = under 40%, bin B = from 40% up to 80%, bin C = 80% and over

Here's what some known entries look like.
>  <compound>
COc1cc2nc(-c3ccc(Cl)cc3)cc(OCCCN3CCCCC3)c2cc1OC

>  <target-or-test-system>
OVCAR-8 ovarian

>  <qualitative-label>
bin B

$$$$
>  <compound>
CC(=O)[C@H]1CCC/C=C/[C@@H]2C[C@H](O)C[C@H]2[C@H](O)/C=C/C(=O)O1

>  <target-or-test-system>
OVCAR-8 ovarian

>  <qualitative-label>
bin A

$$$$
>  <compound>
CCN(Cc1ccccc1)c1ccc(C=O)cc1

>  <target-or-test-system>
OVCAR-8 ovarian

>  <qualitative-label>
bin C

$$$$
>  <compound>
CC1(C)CC(O)CCCCCCOc2c(CN)cccc2NC(=O)c2nc(cnc2N)-c2ccc(cc2)S1(=O)=O (centres undefined)

>  <target-or-test-system>
OVCAR-8 ovarian

>  <qualitative-label>
bin A

$$$$
>  <compound>
O=c1c2c(c(=O)n1O)c1c3ccc[nH]c3nc1c1nc3[nH]cccc3c12

>  <target-or-test-system>
OVCAR-8 ovarian

>  <qualitative-label>
bin B

$$$$
>  <compound>
COc1cc2c(cc1OC)C(=O)/C(=C/c1cc(C)c(O)c(C)c1)S2

>  <target-or-test-system>
OVCAR-8 ovarian

>  <qualitative-label>
bin A

$$$$
>  <compound>
Cc1ccc(-n2c3c(c(-c4ccccc4)c2-c2ccccc2)C2=NCCN2C=N3)cc1

>  <target-or-test-system>
OVCAR-8 ovarian

>  <qualitative-label>
bin B

$$$$
>  <compound>
COc1ccc(-c2cnc3c(-c4cccc5ncccc45)cnn3c2)cc1

>  <target-or-test-system>
OVCAR-8 ovarian

>  <qualitative-label>
bin A

$$$$
>  <compound>
COc1ccc(-c2cnc3c(-c4cccc5cnccc45)cnn3c2)cc1

>  <target-or-test-system>
OVCAR-8 ovarian

>  <qualitative-label>
bin B

$$$$
>  <compound>
Cc1c2cc[nH]c(=O)c2c(C)c2c1[nH]c1cc(OCCN3CCN(C)CC3)ccc12

>  <target-or-test-system>
OVCAR-8 ovarian

>  <qualitative-label>
bin A

$$$$

Band of O=C1Nc2cc(-c3ccc(NC(=O)c4ccccc4)cc3)ccc2/C1=C/c1ccc[nH]1 ?
bin C

----------
system: HOP-92 NSCLC; experiment: NCI-60 one-dose screen, 48 h (100 = growth as untreated, 0 = no growth, -100 = all killed); conditions: 10 µM unless noted
Compounds without any hit were thinned out: in the full panel of roughly 83,000, 20% have a hit.
Note to self: growth under 80% means True, ties and anything higher get False.

>  <compound>
O=C(Nc1ccc(-c2ccc3c(c2)NC(=O)/C3=C\c2ccc[nH]2)cc1)NC1CC1

>  <target-or-test-system>
HOP-92 NSCLC

>  <qualitative-label>
False

$$$$
>  <compound>
COc1ccc(C(=O)c2nc3ccccc3n2CC(=O)c2ccc(F)cc2)cc1

>  <target-or-test-system>
HOP-92 NSCLC

>  <qualitative-label>
False

$$$$

Identify whether the compound CCCCCC(=O)Oc1ccc(/C(=C(/C)Cc2ccc(OC)cc2)c2ccc(OCCCN(C)C)cc2)cc1 records growth below 80%.
True

growth strictly < 80% for this compound? O=C(NCCNc1nccc(-c2c(-c3cccc(F)c3)nc3sccn23)n1)c1ccc(Cl)cc1
False

For this compound, is growth lower than 80%? NC1[C@H](c2c[nH]c3ccccc23)c2c([nH]c3ccccc23)[C@H]1c1c[nH]c2ccccc12 (some centres undefined)
False

Check if growth falls below 80% for C=C1C(=O)O[C@H]2[C@H]1CC/C(CNC(=O)C(C)c1ccc(CC(C)C)cc1)=C\CC[C@@]1(C)O[C@@H]21 (some centres undefined) .
True

Dear reviewer, please state whether Cc1ccc(C(=O)/C(=C\c2ccc([N+](=O)[O-])cc2)S(=O)Cc2ccc(F)cc2)cc1 (centres undefined) has growth strictly beneath 80%.
True

Here's an entry: Cc1cc2nc3c4ccc(Br)cc4n(CCN(C)C)c3nc2cc1C . Is its growth below 80%?
True

Consider the compound CCCNC(=O)Oc1ccc(/C(=C(\C)c2ccccc2)c2ccc(OCCCN(C)C)cc2)cc1 . Is its growth strictly less than 80%?
True
